- TEST TARGET: T1, HLA-A*02:01 (peptide-receptive MHC class I monomer after UV cleavage of the UV-sensitive ligand) (human)
- T1 construct: MHC monomers loaded by UV-ligand exchange and captured on streptavidin plates
- ASSAY TEXT: UV ligand-exchange ELISA; exchange yield grade (+ >=10%, ++ >=20%, +++ >=50%, ++++ >=75%)
I'd be grateful if you could share measured peptide exchange yield for these entries.

{"columns": ["BINDER", "RESULT"],
 "data": [
  ["FLQELQLEHA [FLQELQLEHA (SEQ ID NO: 84)]", "50 to 75%"],
  ["YLHIYESQL [YLHIYESQL (SEQ ID NO: 176)]", "50 to 75%"],
  ["NLTDVSPDL [NLTDVSPDL (SEQ ID NO: 65)]", "50 to 75%"],
  ["FLSPLLPLL [FLSPLLPLL (SEQ ID NO: 224)]", "20 to 50%"],
  ["VLYELFTYI [VLYELFTYI (SEQ ID NO: 251)]", "50 to 75%"],
  ["FLAEAPTAL [FLAEAPTAL (SEQ ID NO: 220)]", "20 to 50%"],
  ["GLITQVDKL [GLITQVDKL (SEQ ID NO: 144)]", "50 to 75%"]
]}

Alright, here's another binder for you.
Requested field: peptide exchange yield. Item: FLQEWEVYA [FLQEWEVYA (SEQ ID NO: 257)]
≥ 75%
